# z-score values compiled below
experimental_details: blood-stage malaria parasite viability loss – strain 3D7, DAPI fluorescence, 100 nL, primary screen (AID 1184);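 further: parasites grown inside human red blood cells in medium with human serum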
condition_notes: P. falciparum 3D7 growth, 3 d, higher = more signal
No unit in the answer, only the number.

>>> measured_result("CCCCC=C[C@@H](NC(=O)CCc1ccccc1)c1ccccc1")
-0.425
>>> measured_result("COc1ccc([Si](C)(C)[C@@H]2[C@@H](CCO)O[C@]3(C(=O)N(Cc4cccc(N5C(=O)COc6ccccc65)c4)c4ccccc43)[C@H]2C)cc1")
-2.78

Data point: COc1ccc([Si](C)(C)[C@@H]2[C@@H](CC(=O)N(CCO)Cc3ccccc3)O[C@]3(C(=O)N(Cc4ccc(N5CCOC5=O)cc4)c4ccccc43)[C@H]2C)cc1 ; z-score = -0.352

Data point: COC(=O)C(CC#Cc1ccc2c(c1)[C@]1(C(=O)N2)[C@H](c2ccc(O)cc2)N2[C@H](c3ccccc3)[C@H](c3ccccc3)OC(=O)[C@H]2[C@@H]1C(=O)O)C(=O)OC ; z-score = -0.102

Data point: O=C1c2ccccc2[C@](Cc2ccccc2I)(C(=O)NCC(F)(F)F)[C@H](c2ccc(CO)cc2)N1Cc1ccccc1 ; z-score = -0.945

Data point: O=C1OCCC=C[C@H]2OC34C=CCN(Cn5nnc6ccccc65)C(=O)[C@H]3N(CCCCCO)C(=O)[C@@H]4C12 (stereo partly specified) ; z-score = 0.561

Data point: O=C(O)[C@]1(CCS(=O)(=O)c2ccccc2)N=C(c2ccc(OCCCO)cc2)O[C@@H]1c1ccccc1 ; z-score = -0.212
